PROPERTY LABEL: melting point (°C)

I. O=P1(O)Oc2c(Cl)cc(Cc3ccccc3)cc2-c2ccccc21
II. COC=C(C(=O)OC)C1(c2ccc(OC)cc2)CC=C2C=CC=C2O1 (stereo not given)
melting point comparison. Which is larger, I or II ? Record your answer as the label of the chosen record.
I
(I: 240 °C, II: 124 °C)

====

PROPERTY LABEL: melting point

Record excerpt, results attached:
COMPOUND	PROPERTY LABEL	VAL
CN(O)C(=O)c1ccc(CCCCc2ccccc2)cc1	melting point	62 to 63.5 °C
Oc1ccc(C2(c3ccc(O)cc3)CCCCCC2)cc1	melting point	208 to 209 °C
CCc1nc(C)c(Cc2c(O)ccc3ccccc23)[nH]1	melting point	166 °C
C=C(C1=C(CCC(=O)O)C(O)CC1O)c1ccccc1 (stereo not given)	melting point	124 to 126 °C
CCOCCNC(=O)c1cc(C(=O)OC)c(O)c2ncc(Cc3ccc(F)cc3)cc12	melting point	174 to 175 °C
CCOC(=O)C1(Cc2ccc(OC)c(OC)c2)C(=S)NCC1c1ccc(OC)c(OC)c1 (stereo not given)	melting point	166 to 169 °C

# melting point lookup, item "CCCCCCC(=O)CCCC(=O)O"
58 to 59 °C

# melting point lookup, item "O=Cc1cccc(Sc2ccccc2Cl)c1O"
111 to 112 °C

# melting point lookup, item CCOC(=O)CCCCC1CC(n2c3ccccc3c3ccccc32)c2ccccc2N1C(=O)c1ccc(OC)cc1 (stereo not given)
167 to 168 °C

# melting point lookup, item "CCC(c1ccccc1)(c1ccccc1)c1ccnc(C(=O)O)c1"
191 to 193 °C

====

PROPERTY LABEL: melting point

# melting point lookup, item "O=C1c2ccccc2CCc2ncsc21"
83 to 86 °C

# melting point lookup, item "Oc1cc(/C=C/c2ccccc2)cc(O)c1O"
172 °C

# melting point lookup, item "CCOc1ccc2c(c1)n(C1CCCCC1)c(=O)n2Cc1ccc(NC(=O)N(C)CCO)cc1OC"
157 °C

# melting point lookup, item CCCCOC1OC(CO)C(O)(N(CC)C(=O)N(CCCl)N=O)C(O)C1O (configuration not stated)
75 to 77 °C

# melting point lookup, item CC(C)(C)C(=O)C(Oc1cccc(Cl)n1)n1cncn1 (configuration not stated)
103 to 105 °C

# melting point lookup, item "CC(C)CCS(=O)(=O)c1cccc(-c2nc(=O)c3ccccc3s2)n1"
146 to 147 °C

# melting point lookup, item "COc1nc(C)c(C)nc1NC(=S)N1CCN(c2cccc(Br)c2)CC1"
136 to 138 °C

# melting point lookup, item CC(C=O)C(C(=O)O)c1ccc(Cl)c(Cl)c1 (configuration not stated)
124 to 126 °C

# melting point lookup, item "O=[N+]([O-])C=C(NCCO)NCCO"
145 to 146 °C

# melting point lookup, item "CCCc1c[nH]c(-c2ccc(Cl)cc2)c1-c1ccc(Cl)cc1"
90 to 93 °C

# melting point lookup, item "Clc1cc(CBr)c(CBr)cc1Cl"
55 to 56 °C

# melting point lookup, item COc1cc2nc(N3CCC(N4C(=O)C(C)C(C)C4=O)CC3)nc(N)c2cc1OC (configuration not stated)
267 to 268 °C

# melting point lookup, item "Cc1cc2cc(O)ccc2c(Oc2ccc(/C=C/C(=O)O)cc2)c1-c1ccc(O)cc1"
162 to 164 °C

# melting point lookup, item "O=C1CCN(C(=O)C(F)(F)F)c2ccccc2CN1"
218 to 219 °C

# melting point lookup, item "COc1ccc(S(=O)(=O)c2sc(S(N)(=O)=O)cc2C)cc1"
140 to 143 °C
